Percent Effect: recorded values
System: Trypanosoma brucei
Assay: Trypanosoma brucei 72 hour study
Type: functional, organism-based
Parameters: scale not given: in the data most compounds retested in dose-response had high values
Conditions: 30.3 µM; […]
The campaign covered roughly 66,000 compounds. About 960 (1.5%) showed an effect of 50% or more. The entries come from a sample that favours strong results as a whole.
Provide the reading as a plain figure in %.

Would you please look over these solved cases?
compound: O=C(O)C(F)(F)F.O=C(O)C(F)(F)F.c1coc(CN2C[C@@H]3CN(Cc4ccoc4)CCO[C@@H]3C2)c1
quantityMeasured: Percent Effect
assayResult: -14.62
//
compound: COc1cccc(CN2CCC(O)(c3ccc(C)cn3)CC2)c1OC
quantityMeasured: Percent Effect
assayResult: -256.8
//
compound: Cc1cc(F)ccc1CN1CCCC(O)(CN2CCCC2)C1 (centres undefined)
quantityMeasured: Percent Effect
assayResult: 54.93
//
compound: Cc1oc(-c2cc(F)cc(F)c2)nc1CN1C[C@@H](C)NC[C@@H]1C
quantityMeasured: Percent Effect
assayResult: 16.81
//
compound: Cc1ccc(-c2nc(CN3C[C@@H](C)NC[C@@H]3C)c(C)o2)s1
quantityMeasured: Percent Effect
assayResult: 11.25
//
compound: COCCN1CCC2(CCCN(Cc3ccoc3)C2)C1=O.O=C(O)C(F)(F)F (centres undefined)
quantityMeasured: Percent Effect
assayResult: -22.78

Sample COc1ncc(-c2c(C#N)c(N)nc3c2CCc2[nH]ccc2-3)cn1 ; Percent Effect observed: -6.46

Sample COCCNc1cc(C2CCCNC2)ccn1.Cl (centres undefined) ; Percent Effect observed: 9.179

Sample Cc1cccc(-c2cc(-c3c(C)nn(CCO)c3C)c(C#N)c(N)n2)c1 ; Percent Effect observed: 57.96

Sample CCOC(=O)[C@]12CCCN(Cc3cccs3)C[C@H]1CN(C(C)C)C2.O=C(O)C(F)(F)F.O=C(O)C(F)(F)F ; Percent Effect observed: -11.59

Sample COCC[C@]1(O)CCN(Cc2nnc(C)s2)C[C@H]1C ; Percent Effect observed: -14.31

Sample CC(NCc1ccc(OCC(N)=O)cc1)c1ccc(Cl)cc1.Cl (centres undefined) ; Percent Effect observed: -11.6

Sample CC(NCc1ccc(OCC(N)=O)cc1)c1ccc2c(c1)CCCC2 (centres undefined) ; Percent Effect observed: 58.39

Sample O=C(Cc1ccc(F)c(F)c1)NC1COc2ccccc2C1=O (centres undefined) ; Percent Effect observed: 53.93

Sample Cc1n[nH]c(C)c1-c1c(C#N)c(N)nc2c1CCc1[nH]ccc1-2 ; Percent Effect observed: 52.57

Sample Cc1noc(CNc2c(N3CCCC3)cccc2N2CCCC2)n1 ; Percent Effect observed: -1.503

Sample CCC[C@@H]1CN(C(=O)c2cc3ccccc3s2)C[C@H]1NS(C)(=O)=O ; Percent Effect observed: 55.32

Sample Cc1nn(C)c(C)c1CC(=O)N1CCCN(c2cccnn2)CC1 ; Percent Effect observed: -5.706

Sample CO[C@H]1CN(C(=O)c2ccc(-c3ccccc3)[nH]2)CC[C@H]1N ; Percent Effect observed: 21.81

Sample CCC(=O)NCCCn1c(-c2cccnc2C)cc2cccnc21.Cl ; Percent Effect observed: -13.2

Sample c1ccc(-c2cc(CNCCCN3CCCCC3)c3nnnn3c2)cc1 ; Percent Effect observed: -3.089

Sample O=C(Cc1cccc(F)c1F)NC1COc2ccccc2C1=O (centres undefined) ; Percent Effect observed: -49.3

Sample Cn1ccc(CN2CCCC23CCN(Cc2ccccc2F)CC3)n1.O=C(O)C(F)(F)F.O=C(O)C(F)(F)F ; Percent Effect observed: -74.92

Sample CCOC(=O)[C@]12CCCN(Cc3ccco3)C[C@H]1CN(S(C)(=O)=O)C2.O=C(O)C(F)(F)F ; Percent Effect observed: 4.884

Sample Cc1ccc(-c2cc(-c3c(C)nn(CCO)c3C)c(C#N)c(N)n2)cc1 ; Percent Effect observed: 33.48

Sample Cc1cc(CN2CCN(C(=O)NC(C)Cn3ccnc3)CC2)on1 (centres undefined) ; Percent Effect observed: -36.86

Sample CCn1ncc2c1C(COC)CN(Cc1cccnc1)C2.O=C(O)C(F)(F)F.O=C(O)C(F)(F)F.O=C(O)C(F)(F)F (centres undefined) ; Percent Effect observed: -94.72

Sample CCn1nnc2c1C(COCCN(C)C)CN(Cc1ccc(C)s1)C2.O=C(O)C(F)(F)F.O=C(O)C(F)(F)F (centres undefined) ; Percent Effect observed: -26.69

Sample O=C1C[C@H]2CC[C@@H](CN1)N2C(=O)CCc1ccc2c(c1)OCO2 ; Percent Effect observed: 6.652

// provenance: ChEMBL document CHEMBL3988442
